Could you please report measured IC50 for the items listed next?
# Tested system: Recombinant wild type LRRK2 protein (Homo sapiens (Human), UniProt Q5S007)
# Sequence (Q5S007 whole entry): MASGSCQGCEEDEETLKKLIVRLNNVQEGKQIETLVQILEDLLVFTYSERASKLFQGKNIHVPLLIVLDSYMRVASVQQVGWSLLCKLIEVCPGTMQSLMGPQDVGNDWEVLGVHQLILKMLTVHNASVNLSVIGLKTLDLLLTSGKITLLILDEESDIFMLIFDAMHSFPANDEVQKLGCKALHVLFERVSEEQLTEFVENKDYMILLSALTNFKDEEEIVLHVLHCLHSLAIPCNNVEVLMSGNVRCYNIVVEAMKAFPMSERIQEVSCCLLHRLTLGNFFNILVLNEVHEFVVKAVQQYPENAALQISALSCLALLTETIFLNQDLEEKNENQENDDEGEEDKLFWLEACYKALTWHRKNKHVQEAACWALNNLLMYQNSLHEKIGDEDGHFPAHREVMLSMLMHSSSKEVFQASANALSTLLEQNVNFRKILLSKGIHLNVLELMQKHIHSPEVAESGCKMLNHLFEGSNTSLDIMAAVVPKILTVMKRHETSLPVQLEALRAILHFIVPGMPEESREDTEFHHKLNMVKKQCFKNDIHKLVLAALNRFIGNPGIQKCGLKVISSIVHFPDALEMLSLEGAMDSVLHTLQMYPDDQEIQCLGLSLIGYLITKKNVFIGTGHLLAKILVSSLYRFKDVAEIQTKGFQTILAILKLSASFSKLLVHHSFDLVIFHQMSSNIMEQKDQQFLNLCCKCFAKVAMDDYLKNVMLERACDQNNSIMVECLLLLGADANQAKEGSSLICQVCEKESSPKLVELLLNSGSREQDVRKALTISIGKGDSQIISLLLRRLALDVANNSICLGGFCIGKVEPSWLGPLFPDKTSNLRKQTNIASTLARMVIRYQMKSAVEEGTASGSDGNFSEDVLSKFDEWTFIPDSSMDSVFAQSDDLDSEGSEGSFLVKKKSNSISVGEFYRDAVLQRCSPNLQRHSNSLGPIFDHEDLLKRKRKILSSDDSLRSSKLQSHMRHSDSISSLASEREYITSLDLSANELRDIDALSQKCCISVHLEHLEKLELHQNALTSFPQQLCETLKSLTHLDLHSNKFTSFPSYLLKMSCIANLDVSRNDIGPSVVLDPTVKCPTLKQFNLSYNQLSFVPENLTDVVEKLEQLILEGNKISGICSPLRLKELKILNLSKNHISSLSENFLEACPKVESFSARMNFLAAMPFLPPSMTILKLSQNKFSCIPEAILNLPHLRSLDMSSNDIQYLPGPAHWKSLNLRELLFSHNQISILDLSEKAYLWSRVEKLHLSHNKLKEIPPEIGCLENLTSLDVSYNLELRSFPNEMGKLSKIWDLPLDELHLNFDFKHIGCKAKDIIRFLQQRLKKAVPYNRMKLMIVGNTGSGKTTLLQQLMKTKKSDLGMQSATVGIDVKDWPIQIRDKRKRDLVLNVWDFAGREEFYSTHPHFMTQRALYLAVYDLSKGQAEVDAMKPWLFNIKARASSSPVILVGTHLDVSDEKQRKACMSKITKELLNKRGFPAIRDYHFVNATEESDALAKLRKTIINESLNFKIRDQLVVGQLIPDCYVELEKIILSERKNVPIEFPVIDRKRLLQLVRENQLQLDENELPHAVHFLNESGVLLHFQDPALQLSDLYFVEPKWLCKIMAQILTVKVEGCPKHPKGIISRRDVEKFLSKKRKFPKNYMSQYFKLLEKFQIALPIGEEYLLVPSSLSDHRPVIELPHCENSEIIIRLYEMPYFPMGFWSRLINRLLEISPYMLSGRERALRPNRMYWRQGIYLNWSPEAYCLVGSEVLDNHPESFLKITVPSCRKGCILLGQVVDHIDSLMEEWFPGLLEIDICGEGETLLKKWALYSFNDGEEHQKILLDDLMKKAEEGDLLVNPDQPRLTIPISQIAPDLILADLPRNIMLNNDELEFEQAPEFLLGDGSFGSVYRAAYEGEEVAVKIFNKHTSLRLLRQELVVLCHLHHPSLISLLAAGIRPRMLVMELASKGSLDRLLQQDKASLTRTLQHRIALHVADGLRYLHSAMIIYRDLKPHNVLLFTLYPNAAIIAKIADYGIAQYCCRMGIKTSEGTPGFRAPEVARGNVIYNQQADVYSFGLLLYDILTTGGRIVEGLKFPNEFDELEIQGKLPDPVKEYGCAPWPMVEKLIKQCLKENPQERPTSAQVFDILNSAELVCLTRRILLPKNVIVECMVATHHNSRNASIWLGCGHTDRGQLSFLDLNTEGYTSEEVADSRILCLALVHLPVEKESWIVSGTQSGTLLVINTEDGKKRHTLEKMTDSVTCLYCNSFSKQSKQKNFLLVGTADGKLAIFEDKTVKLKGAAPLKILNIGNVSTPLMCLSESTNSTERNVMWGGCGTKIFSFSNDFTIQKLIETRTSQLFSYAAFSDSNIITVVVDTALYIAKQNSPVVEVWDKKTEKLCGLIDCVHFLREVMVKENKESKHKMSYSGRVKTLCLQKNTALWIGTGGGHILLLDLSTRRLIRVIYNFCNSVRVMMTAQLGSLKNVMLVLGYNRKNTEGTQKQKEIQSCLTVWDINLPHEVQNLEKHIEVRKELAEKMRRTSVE
# Experimental protocol: LRRK2 kinase activity, LanthaScreen TR-FRET assay (wild type)
# Setup conditions: LRRKtide 400 nM, 25 μM ATP, 60 min; read-out: LRRK2 WT IC50

Enter recorded IC50 with Recombinant wild type LRRK2 protein (Homo sapiens (Human), UniProt Q5S007) for Cc1c(C(=O)Nc2ccc3[nH]nc(C(F)F)c3c2)nc(Cl)c(C#N)c1C [Example 291] here.
< 100 nM

GET IC50 where system = Recombinant wild type LRRK2 protein (Homo sapiens (Human), UniProt Q5S007) and item = Cc1ccc(C#N)c(F)c1C(=O)Nc1ccc2[nH]nc(-c3cnoc3)c2c1 [Example 236]
< 100 nM

Recall the reported IC50 of Cc1c(C(=O)Nc2ccc3[nH]nc(C4CC4)c3c2)ncc(C#N)c1C(F)(F)F [Example 286] when tested on Recombinant wild type LRRK2 protein (Homo sapiens (Human), UniProt Q5S007).
1000 to 10000 nM

// output IC50; input Cc1cc(C#N)c(C(F)(F)F)nc1C(=O)Nc1ccc2[nH]nc(-c3cnco3)c2c1 [Example 288] ; system Recombinant wild type LRRK2 protein (Homo sapiens (Human), UniProt Q5S007)
< 100 nM

GET IC50 where system = Recombinant wild type LRRK2 protein (Homo sapiens (Human), UniProt Q5S007) and item = Cc1c(C#N)cnc(C(=O)Nc2ccc3[nH]nc(-c4cnn(C(F)(F)F)c4)c3c2)c1C [Example 169]
< 100 nM

# assay system Recombinant wild type LRRK2 protein (Homo sapiens (Human), UniProt Q5S007): give IC50 of N#Cc1ccc(F)c(C(=O)Nc2ccc3[nH]nc(-c4cnn(C(F)F)c4)c3c2)c1F [Example 163]
< 100 nM

State recorded IC50 with Recombinant wild type LRRK2 protein (Homo sapiens (Human), UniProt Q5S007), entry CSc1n[nH]c2ccc(NC(=O)c3nc(Cl)c(C#N)c(C)c3C)cc12 [Example 317] , no comment.
< 100 nM

Determine reported IC50 for Cc1cc(C#N)cnc1C(=O)Nc1ccc2[nH]nc(CCCN3CCCCC3)c2c1 [Example 323] ; test system: Recombinant wild type LRRK2 protein (Homo sapiens (Human), UniProt Q5S007).
> 10000 nM

Give IC50; test system Recombinant wild type LRRK2 protein (Homo sapiens (Human), UniProt Q5S007); molecule Cc1c(C#N)cnc(C(=O)Nc2ccc3[nH]nc(-c4cnn(CF)c4)c3c2)c1C [Example 172]
< 100 nM

====

Assign IC50 to each entry below.
# Tested system: Recombinant wild type LRRK2 protein (Homo sapiens (Human), UniProt Q5S007)
# Experimental protocol: LRRK2 kinase activity, LanthaScreen TR-FRET assay (wild type)
# Setup conditions: LRRKtide 400 nM, 25 μM ATP, 60 min; read-out: LRRK2 WT IC50

Write IC50 of Cc1cc(C#N)cnc1C(=O)Nc1ccc2[nH]nc(-c3cnn(C4CCOCC4)c3)c2c1 [Example 33] ; system used: Recombinant wild type LRRK2 protein (Homo sapiens (Human), UniProt Q5S007)
< 100 nM

Provide IC50, system Recombinant wild type LRRK2 protein (Homo sapiens (Human), UniProt Q5S007), entry Cc1cnc(-c2n[nH]c3ccc(NC(=O)c4ncc(C#N)c(C)c4C)cc23)o1 [Example 207]
< 100 nM

Name the value of IC50 reported for COc1cc(C(=O)Nc2ccc3[nH]nc(-c4cnco4)c3c2)nc(C)c1C#N [Example 258] when tested on Recombinant wild type LRRK2 protein (Homo sapiens (Human), UniProt Q5S007).
1000 to 10000 nM

Jot down IC50 (Recombinant wild type LRRK2 protein (Homo sapiens (Human), UniProt Q5S007)) of Cc1nccc(-c2n[nH]c3ccc(NC(=O)c4ncc(C#N)c(C)c4C)cc23)n1 [Example 237] .
< 100 nM

# lookup: Recombinant wild type LRRK2 protein (Homo sapiens (Human), UniProt Q5S007) IC50, key = Cc1nn(C)c(C#N)c1C(=O)Nc1ccc2[nH]nc(-c3ccoc3)c2c1 [Example 81]
< 100 nM

Look up and report IC50, with Recombinant wild type LRRK2 protein (Homo sapiens (Human), UniProt Q5S007) as system, for Cc1cc(C#N)cnc1C(=O)Nc1ccc2[nH]nc(-c3ccno3)c2c1 [Example 101]
100 to 1000 nM

// fetch IC50; item: N#Cc1ccc(O)c(C(=O)Nc2ccc3[nH]nc(-c4ccoc4)c3c2)c1 [Example 125] ; system: Recombinant wild type LRRK2 protein (Homo sapiens (Human), UniProt Q5S007)
100 to 1000 nM

Consider the compound Cc1c(C#N)cnc(C(=O)Nc2ccc3[nH]nc(/C=C/C(F)(F)F)c3c2)c1C [Example 266] tested on Recombinant wild type LRRK2 protein (Homo sapiens (Human), UniProt Q5S007); state its IC50.
100 to 1000 nM

GET IC50 where system = Recombinant wild type LRRK2 protein (Homo sapiens (Human), UniProt Q5S007) and item = CCc1c(C#N)ccc(F)c1C(=O)Nc1ccc2[nH]nc(-c3cnco3)c2c1 [Example 231]
< 100 nM

Param request: IC50 | system Recombinant wild type LRRK2 protein (Homo sapiens (Human), UniProt Q5S007) | item Cc1c(C#N)cnc(C(=O)Nc2ccc3[nH]nc(C=C4CCN(C(=O)OC(C)(C)C)CC4)c3c2)c1C [Example 259]
> 10000 nM
